Tested on: CCRF-CEM
Test: Concentration required to protect CEM/0 cells against the cytopathicity of HIV-1 by 50%.
Type: functional, cell-based
Conditions: Homo sapiens
property.name: pEC50
# reply with the number alone; pEC50 is -log10 of concentration in mol/L

[
  {
    "compound": "CCCCCCCCCCCCCCCCOCC(COP(=O)(O)OCC1OC(n2cc(C)c(=O)[nH]c2=O)CC1N=[N+]=[N-])OC (stereo not drawn)",
    "assay.target": "CCRF-CEM",
    "pEC50": 7.19
  },
  {
    "compound": "CCCCCCCCCCCCCCCCOP(=O)(O)OCC1OC(n2cc(C)c(=O)[nH]c2=O)CC1N=[N+]=[N-] (stereo not drawn)",
    "assay.target": "CCRF-CEM",
    "pEC50": 6.24
  }
]

# pEC50 lookup, item Cc1cn([C@H]2C[C@H](N=[N+]=[N-])[C@@H](CO)O2)c(=O)[nH]c1=O [ZIDOVUDINE]
8.19
